testedSystem: Aurora kinase C kinase domain (truncation not stated for this experiment), phosphorylated (human)
Sequence (Q9UQB9 whole entry, looked up): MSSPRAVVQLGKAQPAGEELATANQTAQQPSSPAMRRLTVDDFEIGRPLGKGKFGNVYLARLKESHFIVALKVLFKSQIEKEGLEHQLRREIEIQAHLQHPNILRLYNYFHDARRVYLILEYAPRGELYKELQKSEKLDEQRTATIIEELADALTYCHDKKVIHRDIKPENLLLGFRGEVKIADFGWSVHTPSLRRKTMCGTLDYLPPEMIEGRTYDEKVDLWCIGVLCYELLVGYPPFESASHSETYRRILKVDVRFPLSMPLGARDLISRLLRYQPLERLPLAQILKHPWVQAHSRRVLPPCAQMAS
recordedMetric: Kcat of the AURKC:INCENP complex on a peptide substrate

In the examples that follow, each entry is paired with its recorded Kcat of the AURKC:INCENP complex on a peptide substrate.
substance	observedMeasurement
INCENP IN-box (residues 835–903) S894A (from UniProt Q9NQS7-1 835-903) (domain or fragment)	38800 s⁻¹
INCENP IN-box (residues 835–903), phosphorylated on the TSS motif (from UniProt Q9NQS7-1 835-903) (domain or fragment)	48800
INCENP IN-box (residues 835–903) W897A (from UniProt Q9NQS7-1 835-903) (domain or fragment)	41800

Consider now this further substance.
Query: Please look up its Kcat of the AURKC:INCENP complex on a peptide substrate: INCENP IN-box (residues 835–903) S893A (from UniProt Q9NQS7-1 835-903) (domain or fragment)
Response: 46300

---

testedSystem: Aurora kinase B (AURKB) (Homo sapiens)
Sequence (Q96GD4 77-327 limits assumed): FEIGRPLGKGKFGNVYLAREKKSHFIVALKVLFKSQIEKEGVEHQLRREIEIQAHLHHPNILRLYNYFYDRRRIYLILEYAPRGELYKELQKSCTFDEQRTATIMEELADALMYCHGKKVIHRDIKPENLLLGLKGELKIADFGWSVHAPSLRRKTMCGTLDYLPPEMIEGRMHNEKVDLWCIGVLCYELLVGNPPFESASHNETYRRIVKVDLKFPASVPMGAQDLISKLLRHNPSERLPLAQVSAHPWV
Sequence (Q9NQS7 835-903 partner): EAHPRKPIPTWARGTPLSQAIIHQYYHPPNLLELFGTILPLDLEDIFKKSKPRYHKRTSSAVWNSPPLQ
recordedMetric: pKd
Answer as the number alone; pKd is minus log10 of concentration in mol/L.

Query: Provide the documented pKd with Aurora kinase B (AURKB) (Homo sapiens) as the system for COc1ccc(NC(=O)Nc2ccc3c(c2)C(=O)N([C@@H](C)CO)C[C@H](C)[C@H](CN(C)Cc2ccc4c(c2)OCO4)O3)cc1 [BRD-7880]
Response: 7.80

---

testedSystem: Aurora kinase C kinase domain (truncation not stated for this experiment), phosphorylated (human)
Sequence (Q9UQB9 whole entry, looked up): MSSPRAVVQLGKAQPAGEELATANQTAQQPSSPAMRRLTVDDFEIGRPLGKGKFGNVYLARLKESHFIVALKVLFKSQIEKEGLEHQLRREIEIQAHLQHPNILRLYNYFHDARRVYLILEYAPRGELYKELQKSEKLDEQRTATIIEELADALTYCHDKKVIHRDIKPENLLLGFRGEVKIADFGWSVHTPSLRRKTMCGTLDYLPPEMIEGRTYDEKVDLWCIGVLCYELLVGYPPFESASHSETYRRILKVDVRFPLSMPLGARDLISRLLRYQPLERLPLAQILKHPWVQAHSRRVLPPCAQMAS
Each record here notes measured Km(peptide) of the AURKC:INCENP complex.
Answers without a unit are incomplete; give the number and then its unit.

Query: Quick one: Km(peptide) of the AURKC:INCENP complex of INCENP IN-box (residues 835–903), phosphorylated on the TSS motif (from UniProt Q9NQS7-1 835-903) (domain or fragment) ?
Response: 18.7 µM

Query: Request the reported Km(peptide) of the AURKC:INCENP complex associated with INCENP IN-box (residues 835–903) S893A (from UniProt Q9NQS7-1 835-903) (domain or fragment)
Response: 83 µM

Query: Param item = INCENP IN-box (residues 835–903) W897A (from UniProt Q9NQS7-1 835-903) (domain or fragment) ; retrieve measured Km(peptide) of the AURKC:INCENP complex.
Response: 25.1 µM

Query: I have this substance here, INCENP IN-box (residues 835–903) S894A (from UniProt Q9NQS7-1 835-903) (domain or fragment) , and I need its recorded Km(peptide) of the AURKC:INCENP complex.
Response: 83 µM
